# Tested on: MCF7
# Assay method text: Growth inhibition of Homo sapiens (human) MCF7 cells after 48 hr by SRB assay
# Type: functional
# Condition set: MCF7, 48 h
Endpoint: GI50 (µM)

Example entries and their recorded answers appear below.
Enquiry: Form field - read-out: GI50; system: MCF7; submitted item: Cc1nc2ccccc2c(=O)n1NCC(=O)NN
Return: 11.8

Enquiry: Here is the next compound: CC1=CC(C)N(c2ccccc2)C(=S)N1n1c(C)nc2ccccc2c1=O (stereo unspecified)
Return: 0.7

Enquiry: Another compound: Cc1nc2ccccc2c(=O)n1-n1c(C)cc(=O)n(-c2ccccc2)c1=S
Return: 22.9

[1] Cc1nc2ccccc2c(=O)n1NC(=O)c1cc2ccccc2o1
[2] COc1ccc(/C=C(\Cl)C(=O)Nn2c(C)nc3ccccc3c2=O)cc1
Enquiry: Select one: 1 or 2 . Criterion: greater recorded GI50. Which one? Tell me its label.
Return: 1
(1: 10.9 µM, 2: 0.9 µM)

src = ChEMBL document CHEMBL3044534
